The values you see were collected from the NIST ThermoML archive (doi:10.1021/je900482x).

- assayName: isobaric coefficient of expansion
- testConditions: 288.15 K; 25000 kPa; Liquid; Microcalorimeter
assayEndpoint: isobaric coefficient of expansion

Some solved cases for reference:
> print(dat)
                                   molecule     datavalue
1  CCn1cc[n+](C)c1.O=S(=O)([N-]S(=O)(=O)C(F)(F)F)C(F)(F)F  0.000631 1/K
2  CCCCCCCC[n+]1ccn(C)c1.F[B-](F)(F)F [1-methyl-3-octylimidazolium tetrafluoroborate]  0.000586 1/K
3  CCn1cc[n+](C)c1.F[B-](F)(F)F [1-ethyl-3-methylimidazolium tetrafluoroborate]  0.000581 1/K
4  CCCCCC[n+]1ccn(C)c1.O=S(=O)([N-]S(=O)(=O)C(F)(F)F)C(F)(F)F   0.00063 1/K

QUERY: Given CCCC[n+]1cccc(C)c1.F[B-](F)(F)F [1-butyl-3-methylpyridinium tetrafluoroborate] , state its recorded isobaric coefficient of expansion.
RESULT: 0.000581 1/K

QUERY: Param item = CCCCCCn1cc[n+](C)c1.F[B-](F)(F)F [1-hexyl-3-methylimidazolium tetrafluoroborate] ; retrieve measured isobaric coefficient of expansion.
RESULT: 0.000586 1/K
